All values here come from patent US10604529B2.

Biological target: Recombinant human IDO enzyme (IDO1 enzyme) (Homo sapiens, UniProt P14902)
Construct: purchased BPS Bioscience, USA
Sequence (P14902 whole entry): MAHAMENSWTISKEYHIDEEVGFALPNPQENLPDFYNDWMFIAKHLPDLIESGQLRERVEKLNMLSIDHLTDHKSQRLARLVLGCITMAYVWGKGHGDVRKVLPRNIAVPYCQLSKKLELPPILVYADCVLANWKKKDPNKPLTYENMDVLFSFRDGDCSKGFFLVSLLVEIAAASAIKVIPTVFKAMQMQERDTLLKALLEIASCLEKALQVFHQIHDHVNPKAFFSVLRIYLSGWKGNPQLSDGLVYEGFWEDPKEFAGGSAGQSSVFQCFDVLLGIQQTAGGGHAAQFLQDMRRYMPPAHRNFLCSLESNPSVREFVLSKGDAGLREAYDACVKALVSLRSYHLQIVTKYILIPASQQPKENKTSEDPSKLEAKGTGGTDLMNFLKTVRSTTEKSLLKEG
Assay: In vitro IDO enzymatic activity assay (kynurenine colour reaction, 492 nm)
Assay type: biochemical
Settings: tested compound concentration 200 nM; recombinant human IDO1; read-out: IDO Enzymatic Inhibition Rate (%) (200 nM)
Readout Name: inhibition at 0.2 µM (%)
Give the value in % but do not write % after it.

{"columns": ["Compound", "Readout Name", "Experimental Value"],
 "data": [
  ["O=C(COc1ccc(F)cc1)N1CCC(C(O)CC2c3ccccc3-c3cncn32)CC1 (stereo not shown)", "inhibition at 0.2 µM", 83],
  ["CN(CC(=O)N1CCC(C(O)CC2c3ccccc3-c3cncn32)CC1)c1ccccc1 (stereo not shown)", "inhibition at 0.2 µM", 83],
  ["O=C(COc1ncnc2[nH]cnc12)N1CCC(C(O)CC2c3ccccc3-c3cncn32)CC1 (stereo not shown)", "inhibition at 0.2 µM", 70],
  ["O=C(COc1cccc(C(F)(F)F)c1)N1CCC(C(O)CC2c3ccccc3-c3cncn32)CC1 (stereo not shown)", "inhibition at 0.2 µM", 89],
  ["CN(CC(=O)N1CCC(C(O)CC2c3ccccc3-c3cncn32)CC1)c1ccc2ncccc2c1 (stereo not shown)", "inhibition at 0.2 µM", 75]
]}

Prompt: inhibition at 0.2 µM lookup needed for O=C(CNc1ccccc1)N1CCC(C(O)CC2c3ccccc3-c3cncn32)CC1 (stereo not shown) , thanks.
Response: 65

Prompt: Data request, read-out inhibition at 0.2 µM, for CN(CC(=O)N1CCC(C(O)CC2c3ccccc3-c3cncn32)CC1)c1ccc(C(F)(F)F)cc1 (stereo not shown)
Response: 68

Prompt: I am curious: what inhibition at 0.2 µM value has been reported for O=C(COc1ccccc1)N1CCC(C(O)CC2c3ccccc3-c3cncn32)CC1 (stereo not shown) ?
Response: 85

Prompt: // returns reported inhibition at 0.2 µM for input CN(CC(=O)N1CCC(C(O)CC2c3ccccc3-c3cncn32)CC1)c1ccc(F)cc1 (stereo not shown)
Response: 73

Prompt: Could you share which inhibition at 0.2 µM value was measured for CN(CC(=O)N1CCC(C(O)CC2c3ccccc3-c3cncn32)CC1)c1cccc(Cl)c1 (stereo not shown) ?
Response: 90

---

Target: IFN-γ-induced IDO enzyme in HeLa cells (Homo sapiens, UniProt P14902)
Construct: HeLa cells are human cervical cancer cell lines and can up-regulate the expression of endogenous IDO enzymes; endogenous in cells; host or cells: HeLa cells stimulated with human IFN-γ
Assay: Detection of IDO inhibitory activity at the cellular level (IFN-γ-induced HeLa cells)
Type: cell-based
Conditions: human IFN-γ induced, 48 hours, read-out: IDO EC50 (nM) at the Cellular Level (column head: IC50 (nM))
Listed here are compounds together with their documented EC50.
Give your result in nM as a bare value.

Look over these answered cases.
{"columns": ["Compound", "EC50 [nM]"],
 "data": [
  ["O=C(COc1ccccc1)N1CCC(C(O)CC2c3ccccc3-c3cncn32)CC1 (stereo not drawn)", 154],
  ["O=C(CNc1ccccc1)N1CCC(C(O)CC2c3ccccc3-c3cncn32)CC1 (stereo not drawn)", 312]
]}

Here is the next item to consider.
Prompt: Checklist item: EC50 tested on IFN-γ-induced IDO enzyme in HeLa cells (Homo sapiens, UniProt P14902), entry CN(CC(=O)N1CCC(C(O)CC2c3ccccc3-c3cncn32)CC1)c1ccccc1 (stereo not drawn) , value?
Response: 169
